- experimental.target: IDH2 R140Q (Homo sapiens, UniProt P48735, R140Q)
- Sequence (P48735 40-452 R140Q): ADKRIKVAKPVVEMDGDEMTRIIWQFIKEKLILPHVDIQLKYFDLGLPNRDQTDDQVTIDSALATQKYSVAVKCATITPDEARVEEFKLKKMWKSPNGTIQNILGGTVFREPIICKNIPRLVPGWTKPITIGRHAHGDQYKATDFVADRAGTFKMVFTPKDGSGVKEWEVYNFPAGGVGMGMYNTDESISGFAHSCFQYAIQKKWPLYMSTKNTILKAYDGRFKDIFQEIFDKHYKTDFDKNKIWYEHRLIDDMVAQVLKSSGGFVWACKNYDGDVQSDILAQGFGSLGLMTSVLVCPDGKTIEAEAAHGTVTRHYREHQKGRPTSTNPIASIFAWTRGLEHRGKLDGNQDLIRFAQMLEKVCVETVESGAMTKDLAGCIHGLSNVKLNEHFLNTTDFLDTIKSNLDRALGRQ
- procedure.text: IDH2 R140Q enzymatic assay (cofactor depletion, diaphorase/resazurin)
- condition.details: 16 hours preincubation time
property.measured: IC50

Query: Which IC50 is reported for this molecule? Nc1nc(Nc2ccnc(C(F)(F)F)c2)nc(-c2cccc(C(F)(F)F)n2)n1
Result: < 50 nM

Source of measurements: patent US9724350B2
